I'd appreciate it if you could supply Selectivity values for the items below.
Biological target: pre-pro-human insulin

trypsin variant SEQ ID NO: 72 (protein) IVGGYTCAANSIPYQVSLNSGSHRCGGSLINSQWVVSAAHCYKSRIQVRLGEHNIDVLEGNEQFINAAKIITHPNFNSNTLDNDIMLIKLSSPATLNSRVATVSLPRSCAAAGTECLISGWGNTKSSGSSYPSLLQCLKAPVLSDSSCKSSYPGQITGNMICVGFLEGGKDACQGDSGGPVVCNGQLQGIVSSGYGCAQKNKPGVYTKVCNYVNWIQQTIAAN :: >90%

Proceed to the following item.
Problem: Answer with the recorded Selectivity for the protein listed here: trypsin variant SEQ ID NO: 57 (protein) IVGGYTCAANSIPYQVSLNSGSHRCGGSLINSQWVVSAAHCYKSRIQVRLGEHNIHVLEGNEQFINAAKIITHPNFNGNTLDNDIMLIKLSSPATLNSRVATVSLPRSCAAAGTECLISGWGNTKSSGSSYPSLLQCLKAPVLSDSSCKSSYPGQITGNMICVGFLEGGKDACQGDSGGPVVCNGQLQGIVSSGYGCAQKNKPGVYTKVCNYVNWIQQTIAAN
Solution: >90%
